Target: human GR (Homo sapiens, UniProt P04150)
Construct: U937 cells contain an endogenous glucocorticoid receptor (GR); endogenous in cells; host or cells: U937 cells stably transfected with the TNF-alpha promoter/beta-lactamase reporter
Experiment: Transrepression Assay (GITAR), TNFα-β-lactamase reporter gene in U937 cells
Format: cell-based
Settings: GITAR Emax minus GRAMMER Emax; Table 1
Catalogue of GITAR Greater than by GRAMMER % SEP values
Dear colleague, please return just the value in %, with no unit written.

Answered examples (3):
querysmiles=CN(C(=O)[C@H]1CCC2=Cc3c(cnn3-c3ccc(F)cc3)C[C@@]21C)C1CCCCC1 value=35.3
querysmiles=CN(CCOc1ccccc1)C(=O)[C@H]1CCC2=Cc3c(cnn3-c3ccc(F)cc3)C[C@@]21C value=20.0
querysmiles=CC(C)CN(CC(C)C)C(=O)[C@H]1CCC2=Cc3c(cnn3-c3ccc(F)cc3)C[C@@]21C value=22.2

Incoming: Give its GITAR Greater than by GRAMMER % SEP value. Item: `C[C@]12Cc3cnn(-c4ccc(F)cc4)c3C=C1CC[C@@H]2C(=O)N(CCO)Cc1cc(F)cc(F)c1`
Outgoing: 47.1

====

Molecular target: human GR (Homo sapiens)
Construct: U937 cells contain an endogenous glucocorticoid receptor (GR); endogenous in cells; host or cells: U937 cells stably transfected with the TNF-alpha promoter/beta-lactamase reporter
Test: Transrepression Assay (GITAR), TNFα-β-lactamase reporter gene in U937 cells
Type: cell-based
Conditions: U937 cells; activity repressed by 100 nM dexamethasone = 100%; Table 1
Kindly apply the following: 1.0 if Transrepression U937 Cells GITAR Emax is less than 70%, 0.0 in every other case.

Incoming: Does C[C@]12Cc3cnn(-c4ccc(F)cc4)c3C=C1CC[C@@H]2C(=O)N(CCc1ccccc1F)CC(O)C(F)(F)F (stereo partly drawn) [Compound 93] have Transrepression U937 Cells GITAR Emax strictly under 70%?
Outgoing: 1.0

Incoming: Same read-out for C[C@]12Cc3cnn(-c4ccc(F)cc4)c3C=C1CC[C@@H]2C(=O)N(CCc1ccccc1F)CC(O)C(F)(F)F (stereo partly drawn) [Compound 92] ?
Outgoing: 1.0

Incoming: Same read-out for CN(CC(O)C(F)(F)F)C(=O)[C@H]1CCC2=Cc3c(cnn3-c3ccccc3)C[C@@]21C (stereo partly drawn) ?
Outgoing: 0.0

Incoming: Same read-out for CCN(CC(O)C(F)(F)F)C(=O)[C@H]1CCC2=Cc3c(cnn3-c3ccc(F)cc3)C[C@@]21C (stereo partly drawn) ?
Outgoing: 0.0

====

Target: human GR (Homo sapiens, UniProt P04150)
Construct: U937 cells contain an endogenous glucocorticoid receptor (GR); endogenous in cells; host or cells: U937 cells stably transfected with the TNF-alpha promoter/beta-lactamase reporter
Sequence (P04150 1-777): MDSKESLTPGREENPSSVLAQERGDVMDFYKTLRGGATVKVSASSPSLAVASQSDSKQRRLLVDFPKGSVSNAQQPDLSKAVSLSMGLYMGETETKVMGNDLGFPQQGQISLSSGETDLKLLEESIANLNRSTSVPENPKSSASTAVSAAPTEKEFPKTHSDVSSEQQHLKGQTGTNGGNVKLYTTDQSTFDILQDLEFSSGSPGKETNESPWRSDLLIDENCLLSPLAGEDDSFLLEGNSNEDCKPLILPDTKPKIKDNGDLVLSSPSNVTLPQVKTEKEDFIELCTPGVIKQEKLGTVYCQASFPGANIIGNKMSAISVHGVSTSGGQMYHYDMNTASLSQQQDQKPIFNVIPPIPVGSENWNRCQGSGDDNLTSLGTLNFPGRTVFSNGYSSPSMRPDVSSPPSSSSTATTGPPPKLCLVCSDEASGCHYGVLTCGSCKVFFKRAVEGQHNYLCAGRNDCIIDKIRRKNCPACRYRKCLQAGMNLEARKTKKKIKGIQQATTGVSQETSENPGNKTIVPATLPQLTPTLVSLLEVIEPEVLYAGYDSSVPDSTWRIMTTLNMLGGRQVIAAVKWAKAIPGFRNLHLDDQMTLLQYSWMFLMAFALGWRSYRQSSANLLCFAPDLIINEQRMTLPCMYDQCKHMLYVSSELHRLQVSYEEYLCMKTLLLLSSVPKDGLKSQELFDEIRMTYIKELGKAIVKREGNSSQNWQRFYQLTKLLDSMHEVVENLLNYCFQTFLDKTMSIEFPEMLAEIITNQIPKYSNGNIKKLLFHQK
Assay: Transrepression Assay (GITAR), TNFα-β-lactamase reporter gene in U937 cells
Assay type: cell-based
Details: GITAR Emax minus GRAMMER Emax; Table 1
Catalogue of GITAR Greater than by GRAMMER % SEP values
Dear colleague, please return just the value in %, with no unit written.

Answered examples (3):
molecule=CCCCN(CC)C(=O)[C@H]1CCC2=Cc3c(cnn3-c3ccc(F)cc3)C[C@@]21C observationtype="GITAR Greater than by GRAMMER % SEP" value=26.6
molecule="CC(C)CN(CC(O)C(F)(F)F)C(=O)[C@H]1CCC2=Cc3c(cnn3-c3ccccc3)C[C@@]21C (some centres unmarked)" observationtype="GITAR Greater than by GRAMMER % SEP" value=12.8
molecule="CCCN(CC1CCCO1)C(=O)[C@H]1CCC2=Cc3c(cnn3-c3ccc(F)cc3)C[C@@]21C (some centres unmarked) [Compound 63]" observationtype="GITAR Greater than by GRAMMER % SEP" value=17.6

Incoming: Give its GITAR Greater than by GRAMMER % SEP value. Item: `CN(CCC(F)(F)F)C(=O)[C@H]1CCC2=Cc3c(cnn3-c3ccc(F)cc3)C[C@@]21C`
Outgoing: 24.2

Incoming: Same read-out for `CCCN(CC)C(=O)[C@H]1CCC2=Cc3c(cnn3-c3ccc(F)cc3)C[C@@]21C` ?
Outgoing: 2.3

====

Target: glucocorticoid receptor (GR) (Homo sapiens, UniProt P04150)
Sequence (P04150 1-777): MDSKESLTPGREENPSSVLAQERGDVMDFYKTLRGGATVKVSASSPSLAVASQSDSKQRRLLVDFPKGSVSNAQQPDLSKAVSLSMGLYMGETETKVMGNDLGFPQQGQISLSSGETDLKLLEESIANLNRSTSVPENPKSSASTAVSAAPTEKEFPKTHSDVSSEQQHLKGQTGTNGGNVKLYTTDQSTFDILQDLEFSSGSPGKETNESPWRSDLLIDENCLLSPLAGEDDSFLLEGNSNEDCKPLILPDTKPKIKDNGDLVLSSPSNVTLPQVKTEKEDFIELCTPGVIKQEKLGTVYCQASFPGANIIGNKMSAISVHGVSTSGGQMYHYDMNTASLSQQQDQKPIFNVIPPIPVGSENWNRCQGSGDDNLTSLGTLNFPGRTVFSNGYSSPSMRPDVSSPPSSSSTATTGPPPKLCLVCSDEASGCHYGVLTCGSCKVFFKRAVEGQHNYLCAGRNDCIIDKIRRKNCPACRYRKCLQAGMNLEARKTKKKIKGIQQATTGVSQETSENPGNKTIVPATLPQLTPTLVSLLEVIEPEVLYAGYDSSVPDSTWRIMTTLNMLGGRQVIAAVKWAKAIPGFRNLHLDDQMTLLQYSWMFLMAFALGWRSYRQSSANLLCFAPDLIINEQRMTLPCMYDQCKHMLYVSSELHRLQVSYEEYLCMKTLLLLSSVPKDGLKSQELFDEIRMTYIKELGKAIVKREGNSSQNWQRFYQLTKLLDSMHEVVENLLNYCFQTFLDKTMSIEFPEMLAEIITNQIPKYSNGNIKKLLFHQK
Assay: Ligand binding assay (GR BIND), 3H-dexamethasone displacement in MDA-MB-453 cell lysate
Conditions: GR BIND Ki, compounds in the art (WO03/086294)
observationType: pKi
Lab note — pKi values are minus log10 of concentrations in M.

molecule="C[C@]12Cc3cnn(-c4ccc(F)cc4)c3C=C1CC[C@@H]2C(=O)NCc1ccccc1 [reference compound]" value=7.68

Now look at this one.
Incoming: Give its pKi value. Item: C[C@]12Cc3cnn(-c4ccc(F)cc4)c3C=C1CC[C@@H]2C(=O)Nc1ccccc1 (single isomer, unassigned) [reference compound]
Outgoing: 5.62

====

Molecular target: human GR (Homo sapiens)
Construct: U937 cells contain an endogenous glucocorticoid receptor (GR); endogenous in cells; host or cells: U937 cells stably transfected with the TNF-alpha promoter/beta-lactamase reporter
Assay: Transrepression Assay (GITAR), TNFα-β-lactamase reporter gene in U937 cells
Assay type: cell-based
Conditions: inflection point; U937 cells; Table 1; read-out: Transrepression U937 Cells GITAR IP
observationType: pEC50
Lab note — pEC50 values are minus log10 of concentrations in M.

molecule=CCCCN(CCO)C(=O)[C@H]1CCC2=Cc3c(cnn3-c3ccc(F)cc3)C[C@@]21C testedon="human GR (Homo sapiens)" value=6.09
molecule=C[C@]12Cc3cnn(-c4ccc(F)cc4)c3C=C1CC[C@@H]2C(=O)N1CCC(S(=O)(=O)c2ccccc2)CC1 testedon="human GR (Homo sapiens)" value=5.86

Incoming: Give its pEC50 value. Item: C[C@]12Cc3cnn(-c4ccc(F)cc4)c3C=C1CC[C@@H]2C(=O)N(CCc1ccccc1F)CC(O)CC(F)(F)F (stereo partly shown) [Compound 87]
Outgoing: 6.63

Incoming: Same read-out for `CCCN(CCC(F)(F)F)C(=O)[C@H]1CCC2=Cc3c(cnn3-c3ccc(F)cc3)C[C@@]21C` ?
Outgoing: 6.63
